What inhibition at 3 µM was measured for each of the following?
Test system: LS174T cells
Test: Cell proliferation inhibition assay (5 days, cell counting)
Format: cell-based
Settings: Homo sapiens, LS174T; read-out: Inhibition % on LS174T cells Proliferation 3 uM Inhib. %
Field: numeric (%). Do not append units.

Q) # value lookup — system LS174T cells, readout inhibition at 3 µM, item CN(C)c1ccc2cc(-c3nc(-c4ccc(Br)cc4)cs3)c(N)nc2c1 [LMK-5-66]
A) 98.9

Q) # value lookup — system LS174T cells, readout inhibition at 3 µM, item COc1ccc2c(c1)c(-c1cc3ccc(N(C)C)cc3nc1N)cn2C [VMS-7-29]
A) 99.3

Q) # value lookup — system LS174T cells, readout inhibition at 3 µM, item Nc1nc2cc(N3CCOCC3)ccc2cc1-c1ccccc1F [LMK-5-284]
A) 85.6

Q) # value lookup — system LS174T cells, readout inhibition at 3 µM, item CN(C)c1ccc2cc(-c3nc4ccccc4s3)c(N)nc2c1 [VMS-7-1]
A) 95.3

Q) # value lookup — system LS174T cells, readout inhibition at 3 µM, item CN(C)c1ccc2cc(-c3nc4ccc(F)cc4s3)c(N)nc2c1 [LMK-5-52]
A) 97

Q) # value lookup — system LS174T cells, readout inhibition at 3 µM, item CN(C)c1ccc2cc(-c3nc(-c4ccccc4)cs3)c(N)nc2c1 [LMK-5-67]
A) 99.8

Q) # value lookup — system LS174T cells, readout inhibition at 3 µM, item CN(C)c1ccc2cc(-c3nc4ccc(Cl)cc4s3)c(N)nc2c1 [LMK-5-55]
A) 97.6

Q) # value lookup — system LS174T cells, readout inhibition at 3 µM, item CN1CCN(c2ccc3cc(-c4cc(Cl)cc(Cl)c4)c(N)nc3c2)CC1 [LMK-5-278]
A) 87.7

Q) # value lookup — system LS174T cells, readout inhibition at 3 µM, item CN(C)c1ccc2cc(-c3coc4ccccc34)c(N)nc2c1 [VMS-7-7]
A) 96.8

Q) # value lookup — system LS174T cells, readout inhibition at 3 µM, item CN1CCN(c2ccc3cc(-c4cn(C)c5ccccc45)c(N)nc3c2)CC1 [LMK-5-282]
A) 83.7

Q) # value lookup — system LS174T cells, readout inhibition at 3 µM, item COc1ccc2nc(-c3cc4ccc(N(C)C)cc4nc3N)sc2c1 [LMK-5-62]
A) 85.5

Q) # value lookup — system LS174T cells, readout inhibition at 3 µM, item Nc1nc2cc(N3CCCCC3)ccc2cc1-c1ccccc1F [LMK-5-286]
A) 97

Q) # value lookup — system LS174T cells, readout inhibition at 3 µM, item CN(C)c1ccc2cc(-c3cn(C)c4ccccc34)c(N)nc2c1 [ISQ-1]
A) 99.3

Q) # value lookup — system LS174T cells, readout inhibition at 3 µM, item CN(C)c1ccc2cc(-c3csc4ccccc34)c(N)nc2c1 [VMS-7-3]
A) 96.7

Q) # value lookup — system LS174T cells, readout inhibition at 3 µM, item CN(C)c1ccc2cc(-c3ccc(Cl)c(Cl)c3)c(N)nc2c1 [VMS-4-57]
A) 74.3

Q) # value lookup — system LS174T cells, readout inhibition at 3 µM, item Nc1nc2cc(N3CCOCC3)ccc2cc1-c1cc(Cl)cc(Cl)c1 [LMK-5-276]
A) 65.2

Q) # value lookup — system LS174T cells, readout inhibition at 3 µM, item Nc1nc2cc(N3CCCCC3)ccc2cc1-c1cc(Cl)cc(Cl)c1 [LMK-5-279]
A) 87.6

Q) # value lookup — system LS174T cells, readout inhibition at 3 µM, item COc1ccc(-c2csc(-c3cc4ccc(N(C)C)cc4nc3N)n2)cc1 [LMK-5-68]
A) 94.3

Q) # value lookup — system LS174T cells, readout inhibition at 3 µM, item Nc1nc2cc(N3CCCC3)ccc2cc1-c1cc(Cl)cc(Cl)c1 [LMK-5-280]
A) 97.7
